- tested_system: Estrogen receptor beta (Homo sapiens)
- Sequence (Q92731 whole entry): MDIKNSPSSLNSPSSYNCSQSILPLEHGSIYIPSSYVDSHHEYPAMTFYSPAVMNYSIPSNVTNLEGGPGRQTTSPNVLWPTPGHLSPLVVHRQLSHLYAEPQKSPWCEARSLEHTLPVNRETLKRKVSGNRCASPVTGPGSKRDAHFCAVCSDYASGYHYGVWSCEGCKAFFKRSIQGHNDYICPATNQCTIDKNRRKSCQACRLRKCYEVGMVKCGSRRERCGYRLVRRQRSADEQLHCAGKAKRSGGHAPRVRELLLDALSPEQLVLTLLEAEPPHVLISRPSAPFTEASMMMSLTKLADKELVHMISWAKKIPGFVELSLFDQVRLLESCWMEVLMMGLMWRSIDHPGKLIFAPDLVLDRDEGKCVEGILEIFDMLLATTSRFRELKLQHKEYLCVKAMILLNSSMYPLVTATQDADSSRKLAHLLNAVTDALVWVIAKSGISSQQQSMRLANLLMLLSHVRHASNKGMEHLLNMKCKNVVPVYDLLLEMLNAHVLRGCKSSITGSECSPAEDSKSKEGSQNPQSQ
Quick list: IC50 per entry.
Lab book: enter the figure in nM, no units written.

            compound_structure  numeric_result
0      Oc1ccc(-c2cccc(F)c2)cc1            1200
1  Oc1ccc(-n2nc3ccccc3c2Cl)cc1            1100

With those in mind, consider the next compound.
Checklist item: IC50 tested on Estrogen receptor beta (Homo sapiens), entry `COc1ccc(-c2ccc(O)cc2)cc1` , value? 2400
